target: ZDHHC5 (Homo sapiens, UniProt Q9C0B5)
Sequence (Q9C0B5 60-148): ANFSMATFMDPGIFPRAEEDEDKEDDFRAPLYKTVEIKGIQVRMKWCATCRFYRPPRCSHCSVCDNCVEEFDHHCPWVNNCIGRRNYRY
pKd: −log10 of the molar value.
OBSERVED PROPERTY: pKd

| MOLECULE | SYSTEM TESTED | OBSERVED PROPERTY | VALUE MEASURED |
| --- | --- | --- | --- |
| O=C(NC1CCN(CCCCC2(C(=O)NCC(F)(F)F)c3ccccc3-c3ccccc32)CC1)c1ccccc1-c1ccc(C(F)(F)F)cc1 [Lomitapide] | ZDHHC5 (Homo sapiens, UniProt Q9C0B5) | pKd | 6.29 |
| CCCCCCCCCCCCCCCC(=O)O | ZDHHC5 (Homo sapiens, UniProt Q9C0B5) | pKd | 7.06 |
